Listed below: SCD5 % Max Inhibition values for each entry.
- measurement_target: SCD5 (Homo sapiens, UniProt Q86SK9)
- Construct: host or cells: S. cerevisiae ole1Δ strain (W303 pdr1Δ pdr3Δ background), plasmid pRS316 with TDH3 promoter and CYC1 terminator
- assay_summary: Growth inhibition of humanized yeast strain expressing SCD5 as sole desaturase
- Format: cell-based
- experimental_parameters: humanized yeast strain expressing SCD5
Only the number, expressed in %, is required.

Query string: Notebook entry, SCD5 (Homo sapiens, UniProt Q86SK9) assay: SCD5 % Max Inhibition of `Cc1noc2cc(-c3noc(C4CCN(C(=O)CNC(=O)c5ccccc5)CC4)n3)ccc12` = ?
Result string: 91.64

Query string: And then O=C(C1CC(=O)N(c2ccccc2)C1)N1CCC(c2nc(-c3ccc4c(c3)COC4)no2)CC1 (stereo not shown) , what is it?
Result string: 13.65

Query string: Another: CCN1C(=O)CC(C)c2ccc(-c3noc(C4CCN(C(=O)CNC(=O)c5ccccc5)CC4)n3)cc21 (stereo not shown)
Result string: 21.3

Query string: Moving on to `Cc1ccc(-c2noc(C3CCN(C(=O)[C@@H]4CC(=O)N(c5ccc(C)c(C)c5)C4)CC3)n2)cc1`
Result string: 5.75

Query string: Same read-out for COc1ccc(-c2noc(C3CCN(C(=O)[C@H](C)NC(=O)c4ccccc4)CC3)n2)cc1OC (single isomer, unassigned) ?
Result string: 59.32

* * *

- measurement_target: SCD5 (Homo sapiens)
- Construct: host or cells: S. cerevisiae ole1Δ strain (W303 pdr1Δ pdr3Δ background), plasmid pRS316 with TDH3 promoter and CYC1 terminator
- Sequence (Q86SK9 1-330): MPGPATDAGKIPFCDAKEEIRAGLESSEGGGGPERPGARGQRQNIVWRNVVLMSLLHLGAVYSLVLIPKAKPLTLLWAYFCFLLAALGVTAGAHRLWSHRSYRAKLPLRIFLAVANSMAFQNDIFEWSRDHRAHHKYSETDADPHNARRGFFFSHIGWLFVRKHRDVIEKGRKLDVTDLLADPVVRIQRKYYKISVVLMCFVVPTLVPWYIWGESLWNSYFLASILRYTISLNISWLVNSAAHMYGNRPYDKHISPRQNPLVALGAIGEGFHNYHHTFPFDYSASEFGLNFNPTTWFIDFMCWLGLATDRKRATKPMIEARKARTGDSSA
- assay_summary: Growth inhibition of humanized yeast strain expressing SCD5 as sole desaturase
- Format: cell-based
- experimental_parameters: humanized yeast strain, 40 h
attribute_measured: pIC50
Note: pIC50 values are expressed as the negative base-10 logarithm of concentration in M.

# count of solved cases: 10
INSERT INTO assay_data (compound, endpoint_result) VALUES
  ('COC(=O)N1CCC(c2nc(-c3cccc(C4CCOC4)c3)no2)CC1 (stereo not drawn) [Compound 819]', 5.43),
  ('COC(=O)N1CCC(c2noc(-c3ccc4c(C)nn(C)c4c3)n2)CC1 [Compound 921]', 5.47),
  ('O=C(N1CCC(c2noc(-c3ccc4cnn([C@@H]5CCOC5)c4c3)n2)CC1)C1(F)CC1 [Compound 1096]', 9.00),
  ('CC(C)(C)OC(=O)N1CCN(c2noc(-c3ccc4cnn(C5CS(=O)(=O)C5)c4c3)n2)CC1 [Compound 997]', 7.66),
  ('COC(=O)N1CCC(c2nc(N3CCc4cnn(C(C)C)c4C3)no2)CC1 [Compound 908]', 6.72),
  ('CC(C)(C)CC(=O)N1CCC(c2nc(-c3cccc(C4CCOC4)c3)no2)CC1 (stereo not drawn) [Compound 782]', 6.83),
  ('CCC(=O)N1CCC(c2noc(-c3ccc4cnn([C@H]5CCOC5)c4c3)n2)CC1 [Compound 1049]', 7.92),
  ('CC(C)(C)OC(=O)N1CCC(c2noc(-c3ccc(F)c(N4CCOCC4)c3)n2)CC1 [Compound 1149]', 8.00),
  ('CCC1(C(=O)N2CCC(c3noc(-c4ccc5cnn(C6COC6)c5c4)n3)CC2)CC1 [Compound 964]', 7.52),
  ('COC(=O)N1CCC(c2noc(-c3cccc(C4CCO4)c3)n2)CC1 (stereo not drawn) [Compound 1191]', 5.87);

Query string: Find the recorded pIC50 belonging to CC1(OC(=O)N2CCC(c3noc(-c4ccc5cnn(C6CS(=O)(=O)C6)c5c4)n3)CC2)CC1 [Compound 1060] and report it.
Result string: 6.74

Query string: Please answer likewise for COC(=O)N1CCC(c2noc(-c3ccc4cn(C5COC(C)(C)C5)nc4c3)n2)CC1 (stereo not drawn) [Compound 1095]
Result string: 4.95

Source listed as patent US11873298B2.
